pKi for Prostaglandin E2 receptor EP4 subtype (Homo sapiens, UniProt P35408) - collated from the literature.
// returns pKi (minus log10 of molar concentration), number only

Look over these answered cases.
O=C(NS(=O)(=O)CCc1ccccc1-c1ccc(CSCCc2ccccc2)cc1)c1cccs1 :: 6.16
O=S(=O)(CCc1ccccc1-c1ccc(CSCCc2ccccc2)cc1)NS(=O)(=O)c1cccs1 :: 5.96
CCOc1c2c(c(OCC)c3ncccc13)C(=O)N(c1ccc(CC(=O)O)cc1)C2=O :: 7.50

[ask] Form: Entry = C[C@H](NC(=O)c1cc(C(F)(F)F)cc2c1N(Cc1ccc(C(F)(F)F)cc1)CC2)c1ccc(C(=O)O)cc1 | System = Prostaglandin E2 receptor EP4 subtype (Homo sapiens, UniProt P35408) | pKi = ____
[reply] 9.18

[ask] Another compound to check: O=C(O)c1ccc(CCCc2ccccc2OCc2ccccc2)cc1
[reply] 6.36

[ask] Another compound to check: CC(C)(C)NC(=O)NS(=O)(=O)c1ccccc1-c1ccc(CN2C(=O)c3ccccc3CCc3ccccc32)cc1
[reply] 5.33
